# measurement protocol: Drug concentration in Sprague-Dawley rat lung homogenate at 0.3 mg/kg, IT measured after 24 hrs by LC/MS/MS analysis
# Assay type: ADME, organism-based
# details: read-out: Ct
measure name: concentration at 24 h

>>> result("C[C@H]1CCCCN1c1nnc2ccc(O[C@@H]3CC[C@H](NC(=O)Nc4cc(C(C)(C)C)nn4-c4cccc(OCCN(C)C)c4)c4ccccc43)cn12")
"0.97 µM"
>>> result("Cc1ccc(-n2nc(C(C)(C)C)cc2NC(=O)N[C@H]2CC[C@@H](Oc3ccc4nnc(N5CCCCC5)n4c3)c3ccccc32)cc1")
"12.1 µM"
>>> result("Cc1ccc(-n2nc(C(C)(C)C)cc2NC(=O)N[C@H]2CC[C@@H](Oc3ccc4nnc(N5CCC(CO)CC5)n4c3)c3ccccc32)cc1")
"10.3 µM"
>>> result("C[C@H]1CCCCN1c1nnc2ccc(O[C@@H]3CC[C@H](NC(=O)Nc4cc(C(C)(C)C)nn4-c4cnn(CCN(C)C)c4)c4ccccc43)cn12")
"1.4 µM"
>>> result("C[C@@H]1CCC[C@H](C)N1c1nnc2ccc(O[C@@H]3CC[C@H](NC(=O)Nc4cc(C(C)(C)C)nn4-c4cnn(CCN(C)C)c4)c4ccccc43)cn12")
"4.58 µM"

----------
Item-by-item account of solubility at 0.5 h
# measurement protocol: Solubility of the compound at >=1 mg/ml measured after 30 mins by HPLC analysis
# Type: physicochemical
measure name: solubility at 0.5 h (µg/mL)

>>> quantitative_readout("Cc1ccc(-n2nc(C(C)(C)C)cc2NC(=O)N[C@H]2CC[C@@H](Oc3ccc4nnc(N5CCC(CO)CC5)n4c3)c3ccccc32)cc1")
10
>>> quantitative_readout("C[C@H]1CCCCN1c1nnc2ccc(O[C@@H]3CC[C@H](NC(=O)Nc4cc(C(C)(C)C)nn4-c4cnn(CCN(C)C)c4)c4ccccc43)cn12")
800
>>> quantitative_readout("Cc1ccc(-n2nc(C(C)(C)C)cc2NC(=O)N[C@H]2CC[C@@H](Oc3ccc4nnc(C(C)C)n4c3)c3ccccc32)cc1")
10
>>> quantitative_readout("C[C@H]1CCCCN1c1nnc2ccc(O[C@@H]3CC[C@H](NC(=O)Nc4cc(C(C)(C)C)nn4-c4cccc(OCCN(C)C)c4)c4ccccc43)cn12")
100
>>> quantitative_readout("C[C@@H]1CCC[C@H](C)N1c1nnc2ccc(O[C@@H]3CC[C@H](NC(=O)Nc4cc(C(C)(C)C)nn4-c4cnn(CCN(C)C)c4)c4ccccc43)cn12")
620
>>> quantitative_readout("Cc1ccc(-n2nc(C(C)(C)C)cc2NC(=O)N[C@H]2CC[C@@H](Oc3ccc4nnc(N5CCCCC5)n4c3)c3ccccc32)cc1")
30

----------
# measurement protocol: Drug uptake in Sprague-Dawley rat lung homogenate at 0.03 mg/kg, IT measured after 24 hrs by LC/MS/MS analysis
# Type: ADME, organism-based
# details: in vivo, other
measure name: Drug uptake (%)

>>> quantitative_readout("C[C@@H]1CCC[C@H](C)N1c1nnc2ccc(O[C@@H]3CC[C@H](NC(=O)Nc4cc(C(C)(C)C)nn4-c4cnn(CCN(C)C)c4)c4ccccc43)cn12")
5.4
>>> quantitative_readout("Cc1ccc(-n2nc(C(C)(C)C)cc2NC(=O)N[C@H]2CC[C@@H](Oc3ccc4nnc(C(C)C)n4c3)c3ccccc32)cc1")
9.6
>>> quantitative_readout("C[C@H]1CCCCN1c1nnc2ccc(O[C@@H]3CC[C@H](NC(=O)Nc4cc(C(C)(C)C)nn4-c4cccc(OCCN(C)C)c4)c4ccccc43)cn12")
1.6
>>> quantitative_readout("Cc1ccc(-n2nc(C(C)(C)C)cc2NC(=O)N[C@H]2CC[C@@H](Oc3ccc4nnc(N5CCCCC5)n4c3)c3ccccc32)cc1")
19
>>> quantitative_readout("C[C@H]1CCCCN1c1nnc2ccc(O[C@@H]3CC[C@H](NC(=O)Nc4cc(C(C)(C)C)nn4-c4cnn(CCN(C)C)c4)c4ccccc43)cn12")
1.7
>>> quantitative_readout("Cc1ccc(-n2nc(C(C)(C)C)cc2NC(=O)N[C@H]2CC[C@@H](Oc3ccc4nnc(N5CCC(CO)CC5)n4c3)c3ccccc32)cc1")
23
